Target: CDK2 / proteolyzed cyclin A complex (Homo sapiens, UniProt P24941)
Construct: cyclin A: E. coli, then limited proteolysis
Test: Inhibition of CDK2/Cyclin A retinoblastoma kinase activity
Conditions: Rb fragment substrate, CDK2 at 10 nM or 19 nM
Each entry below lists one item and its recorded Ki value.
Give the number; nM is assumed, so skip it.

Below are worked cases with known answers.
compound: CN(C)CCNC(=O)c1ccc(Nc2nc(N)c(C(=O)c3c(F)cccc3F)s2)nc1 [Example 1K]
Ki [nM]: 9.8
//
compound: C[C@H](CN(C)C)NC(=O)c1ccc(Nc2nc(N)c(C(=O)c3c(F)cccc3F)s2)cn1 [Example C1B, reference compound]
Ki [nM]: 400
//
compound: Nc1nc(Nc2ccc(C(=O)NCc3ccccn3)cn2)sc1C(=O)c1c(F)cccc1F [Example 1C]
Ki [nM]: 7.2

Name the reported Ki value associated with the compound CN1CCN(c2ccc(Nc3nc(N)c(C(=O)c4c(F)cccc4F)s3)nc2)CC1 [Example 2A]
32

Name the reported Ki value associated with the compound Nc1nc(Nc2ccc(C(=O)NCCN3CCCCC3)cn2)sc1C(=O)c1c(F)cccc1F [Example 1F]
18

Name the reported Ki value associated with the compound Nc1nc(Nc2ccc(C(=O)NCc3cccnc3)cn2)sc1C(=O)c1c(F)cccc1F [Example 1D]
5.7

Name the reported Ki value associated with the compound Nc1nc(Nc2ccc(C(=O)Nc3ccccc3)cn2)sc1C(=O)c1c(F)cccc1F [Example 1E]
17
